Measured values drawn from paper PMC3638394 for this set.

# ASSAYED TARGET: T1, αBExt C-terminal peptide, second binding (Homo sapiens, not fully specified; dimer with one αBExt peptide already bound)
# T1 chain: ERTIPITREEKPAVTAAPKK
# TEST NAME: ion-mobility native mass spectrometry titration
OBSERVABLE: pKd
// pKd is dimensionless: -log10 of concentration (M)

Prompt: What value of pKd has been recorded for this entry: αB-crystallin core domain (αBDom) dimer 68-153 (protein) MRLEKDRFSVNLDVKHFSPEELKVKVLGDVIEVHGKHEERQDEHGFISREFHRKYRIPADVDPLTITSSLSSDGVLTVNGPRKQVS
Response: 3.52
